Each recorded value in this set is attributed to ChEMBL document CHEMBL2396621.

# Tested on: M14
# assayOverview: Cytotoxicity against human M14 cells assessed as growth inhibition at 10 uM after 48 hrs by coulter counter analysis
# Type: functional
# assaySetup: M14, 48 h, read-out: GI
parameter: inhibition of growth at 10 µM (%)
Please state the figure in %; there is no need to write the unit.

(Q) Look at this compound and give its reported inhibition of growth at 10 µM. O=C(CSc1nc2ccccc2c(=O)n1CCc1ccccc1)Nc1ccccc1
(A) 10

(Q) Tell me the measured inhibition of growth at 10 µM of O=C(CSc1nc2ccccc2c(=O)n1CCc1ccccc1)Nc1ccccc1C(=O)O , please.
(A) 12

(Q) inhibition of growth at 10 µM lookup needed for CCOc1ccc(NC(=O)CSc2nc3ccccc3c(=O)n2CCc2ccccc2)cc1 , thanks.
(A) 10

(Q) Field request: inhibition of growth at 10 µM | item: O=C(CSc1nc2ccccc2c(=O)n1CCc1ccccc1)NCc1ccccc1
(A) 14

(Q) Given the entry O=C(CSc1nc2ccccc2c(=O)n1CCc1ccccc1)Oc1ccccc1 , report its measured inhibition of growth at 10 µM.
(A) 13

(Q) Give the measured inhibition of growth at 10 µM of CC(=O)c1ccc(NC(=O)CSc2nc3ccccc3c(=O)n2CCc2ccccc2)cc1 .
(A) 21

====

# Test system: SF-268
# assayOverview: Cytotoxicity against human SF268 cells assessed as growth inhibition at 10 uM after 48 hrs by coulter counter analysis
# Type: functional
# assaySetup: SF-268, 48 h, read-out: GI
parameter: inhibition of growth at 10 µM (%)
Respond numerically; units are % and should not be typed.

(Q) Recorded inhibition of growth at 10 µM for CC(=O)c1ccc(NC(=O)CSc2nc3ccccc3c(=O)n2CCc2ccccc2)cc1 with SF-268, please?
(A) 32

(Q) Record lookup: for SF-268, what inhibition of growth at 10 µM belongs to O=C(CSc1nc2ccccc2c(=O)n1CCc1ccccc1)Nc1ccccc1C(=O)O ?
(A) 33

(Q) State its inhibition of growth at 10 µM on SF-268: O=C(CSc1nc2ccccc2c(=O)n1CCc1ccccc1)NCc1ccccc1
(A) 28

(Q) Form: Entry = O=C(CSc1nc2ccccc2c(=O)n1CCc1ccccc1)Oc1ccccc1 | System = SF-268 | inhibition of growth at 10 µM = ____
(A) 16

(Q) Which inhibition of growth at 10 µM is reported with SF-268 for this entry: COc1cc(NC(=O)CSc2nc3ccccc3c(=O)n2CCc2ccccc2)cc(OC)c1OC ?
(A) 87

====

# System: A549
# assayOverview: Cytotoxicity against human A549 cells assessed as growth inhibition at 10 uM after 48 hrs by coulter counter analysis
# Assay type: functional
# assaySetup: A549, 48 h, read-out: GI
Please provide measured inhibition of growth at 10 µM for the entries that follow.
Return type: number; implicit unit %.

(Q) Recorded inhibition of growth at 10 µM for COc1cc(NC(=O)CSc2nc3ccccc3c(=O)n2CCc2ccccc2)cc(OC)c1OC , please?
(A) 76

(Q) # inhibition of growth at 10 µM lookup, item O=C(CSc1nc2ccccc2c(=O)n1CCc1ccccc1)Nc1ccc(Cl)cc1
(A) 16

(Q) inhibition of growth at 10 µM for CCOC(=O)c1ccc(NC(=O)CSc2nc3ccccc3c(=O)n2CCc2ccccc2)cc1 ?
(A) 27

(Q) Recorded inhibition of growth at 10 µM of O=C(CSc1nc2ccccc2c(=O)n1CCc1ccccc1)Oc1ccccc1 , please.
(A) 12

(Q) // lookup inhibition of growth at 10 µM for O=C(CSc1nc2ccccc2c(=O)n1CCc1ccccc1)Nc1ccccc1C(=O)O
(A) 46

(Q) Reported inhibition of growth at 10 µM, compound NC(=O)CSc1nc2ccccc2c(=O)n1CCc1ccccc1 : ____
(A) 12

(Q) # get_value(readout='inhibition of growth at 10 µM', item= COc1cc(NC(=O)CCSc2nc3ccccc3c(=O)n2CCc2ccccc2)cc(OC)c1OC )
(A) 29

(Q) Requested read-out: inhibition of growth at 10 µM. Entry: COc1cc(OC(=O)CSc2nc3ccccc3c(=O)n2CCc2ccccc2)cc(OC)c1OC
(A) 10

(Q) Given the entry O=C(CSc1nc2ccccc2c(=O)n1CCc1ccccc1)NCc1ccccc1 , report its measured inhibition of growth at 10 µM.
(A) 17

(Q) May I ask what inhibition of growth at 10 µM has been recorded for O=C(CSc1nc2ccccc2c(=O)n1CCc1ccccc1)Nc1ccccc1 ?
(A) 16

(Q) Any idea what its inhibition of growth at 10 µM is? The compound is O=C(CSc1nc2ccccc2c(=O)n1CCc1ccccc1)Nc1ccc(F)cc1
(A) 23

(Q) Need inhibition of growth at 10 µM, item CC(=O)c1ccc(NC(=O)CSc2nc3ccccc3c(=O)n2CCc2ccccc2)cc1
(A) 29

(Q) Find the recorded inhibition of growth at 10 µM belonging to COc1ccc(NC(=O)CSc2nc3ccccc3c(=O)n2CCc2ccccc2)cc1 and report it.
(A) 25

(Q) So what's the measured inhibition of growth at 10 µM for this one? Cc1ccc(NC(=O)CSc2nc3ccccc3c(=O)n2CCc2ccccc2)cc1
(A) 21

(Q) Need inhibition of growth at 10 µM, item CCOc1ccc(NC(=O)CSc2nc3ccccc3c(=O)n2CCc2ccccc2)cc1
(A) 13
